# pKa per entry
protocol-notes: Titration of lipids to measure pKa
Type: physicochemical
experimental-conditions: lipids titrated

{"columns": ["compound", "pKa"],
 "data": [
  ["CCCCCC/C=C\\COC(=O)CCCN(CCCC(=O)OC(CCCCCCC)CCCCCCCC)C(=O)SCCN(C)C (stereo not shown) [ATX-57]", 6],
  ["CCCCCC/C=C\\COC(=O)CCCN(CCCC(=O)OC(CCCCCC)CCCCCCC)C(=O)SCCN(C)C (stereo not shown) [ATX-58]", 6.1],
  ["CCCCCC/C=C\\COC(=O)CCCN(CCCC(=O)OC(CCCCCCC)CCCCCCC)C(=O)SCCN(C)C [ATX-81]", 5.9]
]}

We next turn to a different compound, shown below.
Note pKa for the compound shown: CCCCCC/C=C\COC(=O)CCCCCN(CCCC(=O)OC(CCCCCC)CCCCCC)C(=O)SCCN(C)C [ATX-84] 6.1
